- assayed.system: Pantothenate synthetase (Mycobacterium tuberculosis (strain ATCC 25618 / H37Rv)) (UniProt P9WIL5)
- Sequence (P9WIL5 whole entry, looked up): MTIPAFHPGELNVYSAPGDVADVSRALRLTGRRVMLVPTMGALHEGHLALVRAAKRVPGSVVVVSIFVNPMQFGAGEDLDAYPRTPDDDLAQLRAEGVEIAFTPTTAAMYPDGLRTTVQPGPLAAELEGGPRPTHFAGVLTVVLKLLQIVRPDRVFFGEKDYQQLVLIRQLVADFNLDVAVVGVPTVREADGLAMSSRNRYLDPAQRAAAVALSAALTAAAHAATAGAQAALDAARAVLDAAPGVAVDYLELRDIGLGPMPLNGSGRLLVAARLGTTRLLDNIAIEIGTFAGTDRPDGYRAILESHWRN
- assay.remarks: Coupled enzyme confirmation of inhibitors against recombinant Mtb PanC (AID 375);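 further: 0% = full reaction with vehicle and 100% = no enzyme background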
- condition.parameters: coupled enzyme assay; at 10 µM, active compounds read high

{"compound": "CCc1nnc(NC(=O)c2cccc(C(=O)Nc3nnc(CC)s3)n2)s1", "display.unit": "%", "inhibition": 0}
{"compound": "CCOC(=O)N1CCN(C(=O)C2c3cc(OC)c(OC)cc3C(=O)N3CCc4ccccc4C23)CC1 (stereo not given)", "display.unit": "%", "inhibition": 4}
{"compound": "CC12COC3(C(=O)Nc4ccc(Cl)cn4)CC1CCC32C (stereo not given)", "display.unit": "%", "inhibition": 0}
{"compound": "O=C1CN(C(=O)COC(=O)C23CC4CC(CC(O)(C4)C2)C3)c2ccccc2N1", "display.unit": "%", "inhibition": 19}
{"compound": "CC1CCCCN1C(=O)Cn1nnc(-c2cccnc2)n1 (stereo not given)", "display.unit": "%", "inhibition": 0}

---

# Lookup of reported inhibition keyed by entry
- assay.remarks: growth suppression of yeast trafficking mutant, preliminary HTS, modulators of trafficking downstream of Golgi apparatus project, 1536-format plate, OD 615 nm (AID 637)
- condition.parameters: yeast transport mutant growth, absorbance 615 nm, 18 h; active compounds read high

{"compound": "COc1ccc(CCNC(=O)c2c(N)n(CCN3CCOCC3)c3nc4ccccc4nc23)cc1", "display.unit": "%", "inhibition": 1.82}
{"compound": "CN(C)[C@@H]1C(=O)C(C(N)=O)=C(O)[C@@]2(O)C(=O)C3=C(O)c4c(O)cccc4[C@@](C)(O)[C@H]3C[C@@H]12", "display.unit": "%", "inhibition": -2}
{"compound": "Cc1cccc(-n2c(O)c(C=NCCCN3CCOCC3)c(=O)[nH]c2=O)c1C", "display.unit": "%", "inhibition": -2.7}
{"compound": "O=c1c2ccccc2[se]n1-c1ccccc1", "display.unit": "%", "inhibition": -0.5}
{"compound": "CC(C)=CCSc1nnc([C@@H](N)Cc2c[nH]c3ccccc23)o1", "display.unit": "%", "inhibition": -8.39}
{"compound": "Nc1ccnn1C1CCNCC1", "display.unit": "%", "inhibition": -2.06}
{"compound": "CCCNS(=O)(=O)c1ccc(OCC(=O)N2CCN(Cc3ccccc3)CC2)cc1", "display.unit": "%", "inhibition": 5.97}
{"compound": "CCN1c2nc3ccccn3c(=O)c2CC2(C(=O)N(C)C(=O)N(C)C2=O)C1C (stereo not given)", "display.unit": "%", "inhibition": 2.9}
{"compound": "O=C(Cn1ncc2c3ccccc3n(Cc3ccc(F)cc3)c2c1=O)N1CCC2(CC1)OCCO2", "display.unit": "%", "inhibition": -2.55}
{"compound": "COC(=O)CC1(Cc2ccccc2)C(=O)NC(=O)NC1=O", "display.unit": "%", "inhibition": -0.98}

---

- assayed.system: Pantothenate synthetase (Mycobacterium tuberculosis (strain ATCC 25618 / H37Rv))
- assay.remarks: Coupled enzyme confirmation of inhibitors against recombinant Mtb PanC (AID 375);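 further: 0% = full reaction with vehicle and 100% = no enzyme background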
- condition.parameters: coupled enzyme assay; at 10 µM, active compounds read high

{"compound": "CCCCOc1cc(=O)[nH]c(=O)[nH]1", "display.unit": "%", "inhibition": 4}
{"compound": "O=C(NCC1CCCO1)C1c2ccccc2C(=O)N1C1CCCCCC1 (configuration not stated)", "display.unit": "%", "inhibition": 0}
{"compound": "Cc1ccc(OCC(O)Cn2c(NCCc3ccccc3)nc3c2c(=O)[nH]c(=O)n3C)cc1 (configuration not stated)", "display.unit": "%", "inhibition": 0}
{"compound": "Cc1nn(-c2ccc(F)cc2)c2nc(N)c(C#N)c(-c3cccs3)c12", "display.unit": "%", "inhibition": 6}
{"compound": "CCOc1ccc2nc(NC(=O)CSc3nnnn3C3CCCCC3)sc2c1", "display.unit": "%", "inhibition": 1}
{"compound": "O=C(NC12CC3CC(CC(C3)C1)C2)C1CCCN1C(=O)NC1CCCCC1 (configuration not stated)", "display.unit": "%", "inhibition": 0}
{"compound": "CN(C)C(=O)CN(C)S(=O)(=O)c1ccc(Cl)cc1", "display.unit": "%", "inhibition": 0}
{"compound": "Cc1ccc(CCNC(=O)C2CCN(S(=O)(=O)c3c(C)nn(C)c3C)CC2)cc1", "display.unit": "%", "inhibition": 0}
{"compound": "COc1cc(C(=O)N(C)c2nnc(-c3cccnc3)s2)cc(OC)c1OC", "display.unit": "%", "inhibition": 0}
{"compound": "CC/C(O)=C(/C#N)c1nnc2n1CCCCC2", "display.unit": "%", "inhibition": 5}
{"compound": "Cc1cccn2c(=O)c3cc(C(=O)N4CCCc5ccccc54)n(C)c3nc12", "display.unit": "%", "inhibition": 0}
{"compound": "COc1ccc2c(c1)C(=O)N(c1ccccc1OC)C(=O)C2", "display.unit": "%", "inhibition": 0}
